Readings of Neut IC50 (µg/ml) subtype A for the listed binders
target: RSV F protein of subtype A (strain A2) on recombinant mKate-RSV (Respiratory syncytial virus subtype A …, UniProt P03420 26-574); assay: cell-based or functional assay
// units = µg/mL; emit number, no label

1. ADI-14536 (antibody, V domains shown, IgG; also called Antibody Number 96) VH: QVQLVQSGGGVVQPGRSLRLSCAASGFSFSSYGMHWVRQAPGKGLEWVAAIFYHEIKDYYADSVNGRFSISRDNSKNTLYLEMYSLKVEDTAVYYCARDSGTLTGLPHDAFDIWGQGTTVTVSS VL: DIQMTQSPSTLSASLGGRVTITCRASQSVTNRLAWYQHKPGKAPNLLIYKASTLEIGVPSRFSGSGSGTEFTLTISSLQPDDFATYYCQQYSSYSWTFGQGTKVEIK    0.56

With those in mind, consider the next binder.
Q: Look up Neut IC50 (µg/ml) subtype A for this binder: ADI-14539 (antibody, V domains shown, IgG; also called Antibody Number 99) VH: QVQLVESGGGVVQPGRSLRLSCAASGFAFRVYDIHWVRQAPGKGLEWVAVAWSDGRDEFYADSVKGRITISRDNSKNTVYLQMSSLRVADTAVYYCARDSGTLTGLPHDAFDVWGQGTTVTVSS VL: DIQLTQSPSTLSASVGDRVTITCRASQSITTRLAWYQQKLGKAPKLLVYKASTLEIGVPSRFSGRGSGTEFTLTISSLQPDDFATYYCHHYNSYSWTFGQGTKVDIK
A: 0.727
